The measurements presented in this section are drawn from ChEMBL document CHEMBL4665896.

# protocol notes: Inhibition of recombinant His6-tagged SARS-CoV-2 main protease using Dabcyl-KTSAVLQ-SGFRKM-E(Edans-NH2) as substrate preincubated for 15 mins followed by substrate addition by FRET based assay
# Set-up: species or system Severe acute respiratory syndrome coronavirus 2
# measurement setup: read-out: IC50
measured property: pIC50
Just so you know, pIC50 here is -log10 of the concentration in molar units; reply with that number alone.

1. N#Cc1ccccc1-c1cc(-c2ccccn2)cn(-c2ccccc2)c1=O : 4.00
2. CC1(C)S[C@@H]2[C@H](NC(=O)[C@H](N)c3ccccc3)C(=O)N2[C@H]1C(=O)OC1OC(=O)c2ccccc21 (some centres undefined) [TALAMPICILLIN] : 3.60
3. N#Cc1ccc2c(c1)N(CCCN1CCC(O)CC1)c1ccccc1S2 [PERICIAZINE] : 3.60

[Q] Given CC1=C(C(=O)OCCN(Cc2ccccc2)c2ccccc2)C(c2cccc([N+](=O)[O-])c2)C(P2(=O)OCC(C)(C)CO2)=C(C)N1 (centres undefined) [EFONIDIPINE] , state its recorded pIC50.
[A] 4.41
